The measured values listed here are drawn from patent US20070049564A1.

# System: E. coli GC 4559
# ASSAY_COMMENT: MIC, broth microdilution
# TEST_CONTEXT: Escherichia coli, GC4559, E. coli GC 4559; Water pre-incubation
Reported MIC values for a set of compounds
Numeric answer only, unit µg/mL assumed.

COMPOUND	ENDPOINT_NAME	EXPERIMENTAL_VALUE
CCCN(CC(=O)Nc1cc(N(C)C)c2c(c1O)C(=O)C1=C(O)[C@]3(O)C(=O)C(C(N)=O)=C(O)[C@@H](N(C)C)[C@@H]3C[C@@H]1C2)C(=O)OCOC(=O)C1CCC1 [Example 7]	MIC	8
CCCCN(CC(=O)Nc1cc(N(C)C)c2c(c1O)C(=O)C1=C(O)[C@]3(O)C(=O)C(C(N)=O)=C(O)[C@@H](N(C)C)[C@@H]3C[C@@H]1C2)C(=O)OCOC(=O)Cc1ccccc1 [Example 12]	MIC	64

INPUT: Answer with the recorded MIC of CCCN(CC(=O)Nc1cc(N(C)C)c2c(c1O)C(=O)C1=C(O)[C@]3(O)C(=O)C(C(N)=O)=C(O)[C@@H](N(C)C)[C@@H]3C[C@@H]1C2)C(=O)OCOC(=O)C(C)C [Example 10] only.
OUTPUT: 16

* * *

# System: E. faecalis GC 2265
# ASSAY_COMMENT: MIC, broth microdilution
# TEST_CONTEXT: Enterococcus faecalis, GC2265, E. faecalis GC 2265; Mouse Serum pre-incubation
ENDPOINT_NAME: MIC (µg/mL)
State just the number; it will be interpreted in µg/mL.

Please review the entries below; each comes with its answer.
COMPOUND	EXPERIMENTAL_VALUE
CCCN(CC(=O)Nc1cc(N(C)C)c2c(c1O)C(=O)C1=C(O)[C@]3(O)C(=O)C(C(N)=O)=C(O)[C@@H](N(C)C)[C@@H]3C[C@@H]1C2)C(=O)OCOC(=O)C(C)(C)C	1
CCCN(CC(=O)Nc1cc(N(C)C)c2c(c1O)C(=O)C1=C(O)[C@]3(O)C(=O)C(C(N)=O)=C(O)[C@@H](N(C)C)[C@@H]3C[C@@H]1C2)C(=O)OCC(C)C	4
CCCCN(CC(=O)Nc1cc(N(C)C)c2c(c1O)C(=O)C1=C(O)[C@]3(O)C(=O)C(C(N)=O)=C(O)[C@@H](N(C)C)C3CC1C2)C(=O)OCOC(=O)C(C)C (some centres unmarked)	1
CCCN(CC(=O)Nc1cc(N(C)C)c2c(c1O)C(=O)C1=C(O)[C@]3(O)C(=O)C(C(N)=O)=C(O)[C@@H](N(C)C)[C@@H]3C[C@@H]1C2)C(=O)OCC	8

Moving on to another compound below.
INPUT: Give the measured MIC for CCCN(CC(=O)Nc1cc(N(C)C)c2c(c1O)C(=O)C1=C(O)[C@]3(O)C(=O)C(C(N)=O)=C(O)[C@@H](N(C)C)[C@@H]3C[C@@H]1C2)C(=O)OCOC(=O)Cc1ccccc1
OUTPUT: 2

* * *

Measured MIC, listed per entry.
# System: E. faecalis GC 2265
# ASSAY_COMMENT: MIC, broth microdilution
# TEST_CONTEXT: Enterococcus faecalis, GC2265, read-out: MINIMAL INHIBITORY CONCENTRATION MIC, pre-incubated in Mouse Serum
Dear colleague, please return just the value in µg/mL, with no unit written.

Consider the worked cases shown below.
CN(C)c1cc(NC(=O)CN(C(=O)OCOC(=O)CC(C)(C)C)C(C)(C)C)c(O)c2c1C[C@H]1C[C@H]3[C@H](N(C)C)C(O)=C(C(N)=O)C(=O)[C@@]3(O)C(O)=C1C2=O 2
CN(C)c1cc(NC(=O)CN(C(=O)OCOC(=O)c2ccc(C(C)(C)C)cc2)C(C)(C)C)c(O)c2c1C[C@H]1C[C@H]3[C@H](N(C)C)C(O)=C(C(N)=O)C(=O)[C@@]3(O)C(O)=C1C2=O 0.5
CCCN(CC(=O)Nc1cc(N(C)C)c2c(c1O)C(=O)C1=C(O)[C@]3(O)C(=O)C(C(N)=O)=C(O)[C@@H](N(C)C)[C@@H]3C[C@@H]1C2)C(=O)OCOC(=O)c1ccsc1 1
CCCN(CC(=O)Nc1cc(N(C)C)c2c(c1O)C(=O)C1=C(O)[C@]3(O)C(=O)C(C(N)=O)=C(O)[C@@H](N(C)C)[C@@H]3C[C@@H]1C2)C(=O)OCOC(=O)c1cccs1 2
CCC(C)(C)C(=O)OCOC(=O)N(CC(=O)Nc1cc(N(C)C)c2c(c1O)C(=O)C1=C(O)[C@]3(O)C(=O)C(C(N)=O)=C(O)[C@@H](N(C)C)[C@@H]3C[C@@H]1C2)C(C)(C)C 2

Next compound, MIC to be filled in.
INPUT: Retrieve MIC measured for CCCN(CC(=O)Nc1cc(N(C)C)c2c(c1O)C(=O)C1=C(O)[C@]3(O)C(=O)C(C(N)=O)=C(O)[C@@H](N(C)C)[C@@H]3C[C@@H]1C2)C(=O)OCOC(=O)c1ccc(-c2ccccc2)cc1 and print it.
OUTPUT: 2

* * *

Documented MIC across a set of compounds
# System: E. coli GC 2271
# ASSAY_COMMENT: MIC, broth microdilution
# TEST_CONTEXT: Escherichia coli, GC2271, read-out: MINIMAL INHIBITORY CONCENTRATION MIC, pre-incubated in Water
Dear colleague, please return just the value in µg/mL, with no unit written.

CC(C)C(=O)OCOC(=O)N(CC(=O)Nc1cc(N(C)C)c2c(c1O)C(=O)C1=C(O)[C@]3(O)C(=O)C(C(N)=O)=C(O)[C@@H](N(C)C)[C@@H]3C[C@@H]1C2)C(C)(C)C 16

// next entry
INPUT: Identify measured MIC corresponding to CCCN(CC(=O)Nc1cc(N(C)C)c2c(c1O)C(=O)C1=C(O)[C@]3(O)C(=O)C(C(N)=O)=C(O)[C@@H](N(C)C)[C@@H]3C[C@@H]1C2)C(=O)OCOC(=O)c1cccs1
OUTPUT: 32

* * *

Listing of recorded MIC by entry.
# Test system: E. faecium GC 4556
# ASSAY_COMMENT: MIC, broth microdilution
# TEST_CONTEXT: Enterococcus faecium, GC4556, read-out: MINIMAL INHIBITORY CONCENTRATION MIC, pre-incubated in Mouse Serum
Dear colleague, please return just the value in µg/mL, with no unit written.

Take a look at these entries with their results.
CN(C)c1cc(NC(=O)CN(C(=O)OCOC(=O)CC(C)(C)C)C(C)(C)C)c(O)c2c1C[C@H]1C[C@H]3[C@H](N(C)C)C(O)=C(C(N)=O)C(=O)[C@@]3(O)C(O)=C1C2=O 2
CN(C)c1cc(NC(=O)CN(C(=O)OCOC(=O)c2ccc(C(C)(C)C)cc2)C(C)(C)C)c(O)c2c1C[C@H]1C[C@H]3[C@H](N(C)C)C(O)=C(C(N)=O)C(=O)[C@@]3(O)C(O)=C1C2=O 0.5
CCCCN(CC(=O)Nc1cc(N(C)C)c2c(c1O)C(=O)C1=C(O)[C@]3(O)C(=O)C(C(N)=O)=C(O)[C@@H](N(C)C)[C@@H]3C[C@@H]1C2)C(=O)OCOC(=O)c1ccc(-c2ccccc2)cc1 2
CCCN(CC(=O)Nc1cc(N(C)C)c2c(c1O)C(=O)C1=C(O)[C@]3(O)C(=O)C(C(N)=O)=C(O)[C@@H](N(C)C)[C@@H]3C[C@@H]1C2)C(=O)OCOC(=O)c1ccc(C(C)(C)C)cc1 0.5

INPUT: Report measured MIC; entry is CCCN(CC(=O)Nc1cc(N(C)C)c2c(c1O)C(=O)C1=C(O)[C@]3(O)C(=O)C(C(N)=O)=C(O)[C@@H](N(C)C)[C@@H]3C[C@@H]1C2)C(=O)OCOC(=O)c1ccc(-c2ccccc2)cc1
OUTPUT: 1

INPUT: Return value of MIC for input CCCCN(CC(=O)Nc1cc(N(C)C)c2c(c1O)C(=O)C1=C(O)[C@]3(O)C(=O)C(C(N)=O)=C(O)[C@@H](N(C)C)[C@@H]3C[C@@H]1C2)C(=O)OCOC(=O)c1cc(C)cc(C)c1 , no commentary.
OUTPUT: 2

INPUT: In one line, give reported MIC of the entry CCCN(CC(=O)Nc1cc(N(C)C)c2c(c1O)C(=O)C1=C(O)[C@]3(O)C(=O)C(C(N)=O)=C(O)[C@@H](N(C)C)[C@@H]3C[C@@H]1C2)C(=O)OCOC(=O)c1ccsc1 .
OUTPUT: 0.5

INPUT: Using the record for CCCN(CC(=O)Nc1cc(N(C)C)c2c(c1O)C(=O)C1=C(O)[C@]3(O)C(=O)C(C(N)=O)=C(O)[C@@H](N(C)C)[C@@H]3C[C@@H]1C2)C(=O)OCOC(=O)c1cccs1 , state its measured MIC.
OUTPUT: 1

* * *

Examples of compounds with documented MIC follow.
# System: E. coli GC 2271
# ASSAY_COMMENT: MIC, broth microdilution
# TEST_CONTEXT: Escherichia coli, GC2271, read-out: MINIMAL INHIBITORY CONCENTRATION MIC, pre-incubated in Mouse Serum
Your answer should be a plain number; it is taken to be in µg/mL.

INPUT: Specify MIC for CCCCN(CC(=O)Nc1cc(N(C)C)c2c(c1O)C(=O)C1=C(O)[C@]3(O)C(=O)C(C(N)=O)=C(O)[C@@H](N(C)C)[C@@H]3C[C@@H]1C2)C(=O)OCOC(=O)c1cccs1 and stop.
OUTPUT: 1

INPUT: Complete the entry with MIC for CCC(C)(C)C(=O)OCOC(=O)N(CC(=O)Nc1cc(N(C)C)c2c(c1O)C(=O)C1=C(O)[C@]3(O)C(=O)C(C(N)=O)=C(O)[C@@H](N(C)C)[C@@H]3C[C@@H]1C2)C(C)(C)C
OUTPUT: 2

INPUT: Please give the documented MIC of CCCCN(CC(=O)Nc1cc(N(C)C)c2c(c1O)C(=O)C1=C(O)[C@]3(O)C(=O)C(C(N)=O)=C(O)[C@@H](N(C)C)[C@@H]3C[C@@H]1C2)C(=O)OCOC(=O)c1ccc(-c2ccccc2)cc1
OUTPUT: 0.5

INPUT: Retrieve MIC measured for CCCN(CC(=O)Nc1cc(N(C)C)c2c(c1O)C(=O)C1=C(O)[C@]3(O)C(=O)C(C(N)=O)=C(O)[C@@H](N(C)C)[C@@H]3C[C@@H]1C2)C(=O)OCOC(=O)c1cccs1 and print it.
OUTPUT: 1

INPUT: Check the records and state MIC for CC(C)C(=O)OCOC(=O)N(CC(=O)Nc1cc(N(C)C)c2c(c1O)C(=O)C1=C(O)[C@]3(O)C(=O)C(C(N)=O)=C(O)[C@@H](N(C)C)[C@@H]3C[C@@H]1C2)C(C)(C)C
OUTPUT: 0.5
